System: SW-620 colon
Experiment: NCI tumour cell line growth inhibition, 48 h
Where a SMILES comes first, the peptide text is derived from it.
// values below are reported TGI
measured.endpoint: TGI

CC1C2(C)OC(=N)C(C#N)(C(C)O2)C1(C#N)C#N (centres undefined) = 43 µM
CNC(=O)CNC(=O)C(NC(=O)CNC(=O)C1CCCN1C(=O)C(C)NC(=O)C(NC(C)=O)C(C)C)C(C)C (centres undefined) (Ac-VAPGVG-NHMe; configuration not given here) = > 100 µM
CSC1=Nc2c(c(C)c(C)n2COC(CO)CO)C2=NC(=O)CC(C)N12 (centres undefined) = > 100 µM
CNCCCNC1(c2cc3ccccc3s2)CCCCC1 = 26.3 µM
O=C(NCCNc1nccc(-c2c(-c3ccc(F)cc3)nc3sccn23)n1)c1ccccc1 = 85.6 µM
OCC1OC2OC3C(CO)OC(OC4C(CO)OC(OC5C(CO)OC(OC6C(CO)OC(OC7C(CO)OC(OC1C(O)C2O)C(O)C7O)C(O)C6O)C(O)C5O)C(O)C4O)C(O)C3O (centres undefined) (tested in a mixture with another compound) = > 100 µM
CCOC(=O)c1c(Cl)c2c(n1Cc1cccc(OC)c1)-c1oncc1CC2 = > 100 µM
Nc1cccc2c1C1=NNC(=O)CC1C2 (centres undefined) = > 100 µM
N#CCCSC(=S)C1CCCC1=N (centres undefined) = > 100 µM

* * *

// values below are reported TGI
Test system: SF-295 CNS
Assay: NCI tumour cell line growth inhibition, 48 h
measured.endpoint: TGI

COc1cc2c(cc1OC)-c1c(oc3cc(OC4OC(CO)C(O)C(O)C4O)c(OC)cc3c1=O)C(O)O2 (configuration not stated) = > 100 µM
CCN(CC)CCCCNc1ncc2cc(-c3cc(OC)cc(OC)c3)c(NC(=O)NC(C)(C)C)nc2n1 = 10.3 µM
COCCN(CCOC)C(=O)COc1c2cc(C(C)(C)C)cc1Cc1cc(C(C)(C)C)cc(c1OCC(=O)N(CCOC)CCOC)Cc1cc(C(C)(C)C)cc(c1OCC(=O)N(CCOC)CCOC)Cc1cc(C(C)(C)C)cc(c1OCC(=O)N(CCOC)CCOC)Cc1cc(C(C)(C)C)cc(c1OCC(=O)N(CCOC)CCOC)C2 = 6.43 µM
N#CCCOCN(CO)c1nc(N(CO)COCCC#N)nc(N(CO)COCCC#N)n1 = 43.7 µM
CNCCCNC1(c2cc3ccccc3s2)CCCCC1 = 27.5 µM
CCOC(=O)N[C@@H]1C2CC(=O)C(O2)[C@@H]1OC (some centres not stated) = > 100 µM
CC(=O)OC[C@@]1(C)[C@@H]2[C@@H]3[C@@]4(CO[C@]3(C)C(=O)[C@@]3(O)C[C@H](C)[C@H](OC(C)=O)[C@@H]3[C@H]4OC(C)=O)[C@H](OC(=O)c3ccccc3)C[C@@H]21 = > 100 µM
c1ccc(CCN2CCOCC2)nc1 = > 100 µM
Brc1ccccc1C=NC12CC3CC(CC(C3)C1)C2 = > 100 µM
COc1cc(C2CC(c3ccccc3)=NN2C(C)=O)cc(OC)c1OC (configuration not stated) = 4.15 µM
Cc1c(C(=O)/C=C/c2c(Cl)cccc2Cl)c(=O)n(-c2ccccc2)n1C = 75.9 µM
O=C(O)c1cccc2cccc(C(=O)O)c12.[Hg] = 32.2 µM
C=C1CC2CC(=O)C(O)C(C1)C2 (configuration not stated) = > 100 µM
CCC1c2[nH]c3ccccc3c2C[C@H]2C(=O)N3CCC[C@H]3C(=O)N12 (some centres not stated) = > 100 µM
CCN(CC)CCCC(Cc1ccccc1)Nc1c2ccc(Cl)cc2nc2ccc(OC)cc12 (configuration not stated) = 3.55 µM
Cc1cc(O)c(C=NC(=S)c2ccccc2)c(=O)o1 = > 100 µM
CC1OC(OC2C(CO)OC(O[C@H]3CC[C@@]4(C)C(=CC[C@H]5[C@@H]6C[C@@H]7O[C@](O)(CC[C@H](C)COC8OC(CO)C(O)C(O)C8O)[C@@H](C)[C@@H]7[C@@]6(C)CC[C@@H]54)C3)C(OC3OC(C)C(O)C(O)C3O)C2O)C(O)C(O)C1O (some centres not stated) = 23.1 µM

* * *

Test system: HS 578T breast
Test: NCI tumour cell line growth inhibition, 48 h
// values below are reported TGI
measured.endpoint: TGI

COc1ccc2oc(=O)c(-c3nc4ccccc4o3)cc2c1 = > 100 µM
COc1ccc2nc3cc([N+](=O)[O-])ccc3c(Nc3ccc(S(=O)(=O)N=C(N)N)cc3)c2c1 = > 100 µM
O=[N+]([O-])c1cc(-c2nnc(C34CC5CC(CC(C5)C3)C4)o2)cc([N+](=O)[O-])c1 = > 100 µM
C=C(C)[C@@H]1CCC2=C[C@H](OC2=O)[C@@]2(C)C[C@@H]2C(=O)/C=C(/C)C(=O)[C@H]1OC(C)=O = 88.6 µM
Cc1nn(-c2ccccc2)c2nc3c(nc12)C1=NCCN1C(c1ccc(Cl)cc1)N3 (stereo not drawn) = 12.8 µM
O=C(NCCNc1nccc(-c2c(-c3ccc(F)cc3)nc3sccn23)n1)c1ccccc1 = > 100 µM
Cc1cn([C@H]2C[C@@H]3[C@@H](COC(CCl)N3O)O2)c(=O)[nH]c1=O (stereo partly drawn) = > 100 µM
Cn1c(=O)cc(N=Nc2ccc(Cl)c(Cl)c2)[nH]c1=O = 94 µM
Cc1sc(NC2=NC(=O)/C(=C\c3ccccc3)S2)nc1-c1nc(NC2=NC(=O)/C(=C\c3ccccc3)S2)sc1C = > 50 µM
N#Cc1c(N)nc(NCc2ccccc2)c(C#N)c1-c1ccccc1Cl = 43 µM
C[C@H](N[C@H]1CCC[C@]1(O)C#Cc1ccc2c(c1)OCO2)c1ccccc1 = > 25 µM
COc1cc(-n2cnc(-c3ccc(Cl)cc3)c2)cc(OC)c1OC = > 100 µM
O=S(=O)(CCNCc1ccc(-c2ccc3ncnc(Nc4ccc(OCc5cccc(F)c5)c(Cl)c4)c3c2)o1)c1ccccc1 = > 25 µM
N#C/C(=C1C=C/C(=N\O)C(Cl)=C\1)c1ccccc1 = 38.5 µM
COc1ccc2c(c1)/C(=C\c1c(Cl)n(C)c3ccccc13)C(=O)N2 = 8.12 µM
Cc1c(-c2nnc(-c3ccc(F)cc3)o2)nnn1-c1ccnc2c(C(F)(F)F)cccc12 = 53.9 µM
CSc1ccc(-c2cc(-c3nc4ccccc4[nH]3)nc(N)c2C#N)cc1 = > 100 µM
CC(=O)OC1Oc2cc(C)c(C)cc2-c2oc(=O)c(-c3ccc(F)cc3)cc21 (stereo not drawn) = 68.6 µM
O=C(NCCNc1nccc(-c2c(-c3cccc(O)c3)nc3sccn23)n1)Nc1cccc(C(F)(F)F)c1 = 17.8 µM
CCC1c2[nH]c3ccccc3c2C[C@H]2C(=O)NC(CCCCNC(=O)OC(C)(C)C)C(=O)N12 (stereo partly drawn) = 76.2 µM
CSC1=Nc2c(c(C)c(C)n2COC(CO)CO)C2=NC(=O)CC(C)N12 (stereo not drawn) = > 100 µM
COc1cc(C2CC(c3ccccc3)=NN2C(C)=O)cc(OC)c1OC (stereo not drawn) = 34.6 µM
O=C1CC[C@H](c2ccc(O)c3c2C(=O)[C@@H]2O[C@@H]2C3=O)c2cccc(O)c21 = 97.2 µM
CC(C)(C)OC(=O)CC(NC(=O)OC(C)(C)C)C(=O)NC(C(=O)O)C(O)c1ccccc1 (stereo not drawn) = > 100 µM
OCCCc1cc(O)c2c(c1)C(CO)C(c1ccc(O)c(O)c1)O2 (stereo not drawn) = > 100 µM
CCn1c(-c2nonc2N)nc2cncc(C(=O)NCCNC)c21 = > 6.59 µM
Cc1nc2c(O)cc3c4c(n(Cc5ccccc5)c3c2nc1C)C(=O)CCC4 = > 100 µM
OCC1OC2OC3C(CO)OC(OC4C(CO)OC(OC5C(CO)OC(OC6C(CO)OC(OC7C(CO)OC(OC1C(O)C2O)C(O)C7O)C(O)C6O)C(O)C5O)C(O)C4O)C(O)C3O (stereo not drawn) (tested in a mixture with another compound) = > 100 µM
CN(C)C(=S)N/N=C(\C(=N/NC(=S)N(C)C)c1ccccn1)c1ccccn1 = > 46 µM
CC(C)n1c(=O)[nH]n(-c2ccccc2)c1=O = > 100 µM
O=C1C(=c2cc3c(c4ccccc24)=NC24CCCCC2C(c2ccccc2)C=C(c2ccccc2)N34)C(=O)c2ccccc21 (stereo not drawn) = > 100 µM
Cc1cc(C)c2nc3nc(C)cc(C)c3c(N)c2c1 = 45.2 µM
COc1ccc2c(c1)CCN1CCCc3ccc(OC)cc3C21 (stereo not drawn) = > 100 µM
O=C(Nc1sccc1S(=O)(=O)c1ccc(Cl)cc1)c1ccccc1 = > 100 µM
Cn1ccnc1C(=O)/C=C/c1ccc(CC(=O)Nc2ccc(F)cc2)cc1 = > 25 µM
CC(C)[Si](OC1=C(c2ccccc2)C(NC(=O)/C=C/c2ccc([N+](=O)[O-])cc2)CCC1)(C(C)C)C(C)C (stereo not drawn) = > 100 µM
COc1nc(N)nc2c1ncn2[C@@H]1O[C@H](CO)[C@@H](O)[C@@H]1O = > 100 µM
C/C=C1\CNC1C(=O)O (stereo not drawn) = > 100 µM
